# METHOD SUMMARY: CREB reporter modulators without forskolin, primary screen, cell-based, PC12, CRE-LacZ reporter, unstimulated (AID 1145)
# PARTICULARS: no forskolin, luminescence, 4.5 h, higher = more signal, called active from +8 up or from −8 down
# cutoff 0.05 applies to z-score; >= gives 1 (yes), < gives 0 (no)

IN: Does z-score meet or surpass 0.05 for CN(C)C(=O)[C@@]1(CCC(=O)OC(C)(C)C)N=C(c2ccc(OCCCO)cc2)O[C@H]1c1ccccc1 ?
OUT: 1 (yes)

IN: Tell me whether z-score is at least 0.05 here: CCN(CC)c1ccc(N2CC=CC34O[C@@H]5C=CCCOC(=O)C5[C@H]3C(=O)N(CCCCCO)[C@@H]4C2=O)cc1 (stereo partly specified)
OUT: 1 (yes)

IN: Tell me whether z-score is at least 0.05 here: CN(C)CCCCNC(=O)[C@H]1C[C@H]2C(=O)N[C@@H](Cc3ccccc3)C(=O)N2[C@H]1c1ccc(O)cc1
OUT: 0 (no)

IN: Evaluate COc1ccc(C(=O)Nc2cccc(CN3C(=O)[C@@]4(O[C@@H](CCn5cc(CCO)nn5)[C@H]([Si](C)(C)c5ccc(OC)cc5)[C@H]4C)c4ccccc43)c2)cc1 : z-score at minimum 0.05?
OUT: 1 (yes)

IN: Check if z-score >= 0.05 (inclusive). Item: COCCOC(=O)N1C(=O)[C@@]2(c3ccccc31)[C@H](C(=O)Nc1nc3ccccc3s1)[C@H]1C(=O)O[C@H](c3ccccc3)[C@H](c3ccccc3)N1[C@@H]2c1ccc(OCCO)cc1
OUT: 0 (no)

IN: Check the entry COc1ccc(C#Cc2ccc3c(c2)[C@]2(C(=O)N3)[C@H](C(=O)NC[C@H](O)c3ccccc3)[C@H]3C(=O)O[C@H](c4ccccc4)[C@H](c4ccccc4)N3[C@@H]2c2ccccc2OCCO)cc1 : does z-score equal or exceed 0.05?
OUT: 0 (no)

IN: Hello, I need to know if CCOC(=O)C[C@H]1[C@H](OC(=O)c2ccccc2-c2ccccc2)[C@@H](NC(=O)c2ccc3ccccc3c2)c2cc(OCCCO)ccc2N1C(=O)c1ccc2ccccc2n1 has measured z-score not below 0.05. Thanks!
OUT: 1 (yes)

IN: Is z-score at least 0.05? Consider CCCC[C@@H]1C[C@H]1[C@@H](NC(=O)c1ccc(-c2ccccc2)cc1)c1ccc(-c2ccccc2)cc1
OUT: 1 (yes)

IN: Could you tell me if the measured z-score of O=C1c2ccccc2[C@@]2(Cc3ccccc3N(Cc3ccccc3)C2=O)[C@H](c2ccc(CO)cc2)N1C1CCCCC1 reaches 0.05 or more?
OUT: 1 (yes)

IN: // inclusive: z-score at least 0.05? input: O=C(NCc1ccccc1)[C@]1(CCS(=O)(=O)c2ccccc2)N=C(c2ccc(OCCCO)cc2)O[C@@H]1c1ccccc1
OUT: 0 (no)

---

# METHOD SUMMARY: A549 lung cancer cell viability effects, profiling panel, resazurin fluorescence, 24 h, PK04 Diversity Set (AID 1171); also: test concentration not given here
# PARTICULARS: higher = more signal, called active from +8 up or from −8 down
Give measured z-score for each item. Keep answers brief.
Lab note: jot down the number only; don't add units.

IN: Look up z-score for this compound: COC(=O)c1ccc(C23CC2(C(NP(=O)(c2ccccc2)c2ccccc2)c2ccccc2)C3)cc1 (stereo not drawn)
OUT: -0.416

IN: # query: z-score of entry CC(C)(C)OC(=O)CC[C@]1(C(=O)N2CCCCC2)N=C(c2ccc(OCCCO)cc2)O[C@H]1c1ccccc1N=[N+]=[N-]
OUT: -0.0762

IN: // lookup z-score for CCCN1C(=O)[C@@]2(CCC(=O)OC(C)(C)C)N=C(c3ccc(OCCCO)cc3)O[C@H]2c2ccccc21
OUT: -0.778

IN: Param item = CCCCC=C[C@@H](NC(=O)c1ccco1)c1ccccc1 ; retrieve measured z-score.
OUT: 0.335

IN: Can you look up the measured z-score of [N-]=[N+]=Nc1ccccc1[C@H]1OC(c2ccc(OCCCO)cc2)=N[C@@]1(CCS(=O)(=O)c1ccccc1)C(=O)O for me?
OUT: 0.315

IN: Which z-score is listed for CN1CCC(CCCO)=CC1c1ccc(CN2CCCC2)cc1 (stereo not drawn) ?
OUT: 0.819

IN: For the compound C=C(COC)C(=O)CC[C@@H](OC(=O)c1cccnc1)c1ccc(CO)o1 , what z-score is on record?
OUT: 0.709

IN: Please give the measured z-score for this compound: O=C1O[C@H](c2ccccc2)[C@H](c2ccccc2)N2[C@H]1[C@@H](C(=O)N1CCN(c3ncccn3)CC1)[C@]1(C(=O)Nc3ccccc31)[C@H]2c1ccc(OCCO)cc1
OUT: 1.18
